# System: MDA-MB-435 melanoma
# assay_info: NCI-60 one-dose screen, 48 h (100 = growth as untreated, 0 = no growth, -100 = all killed)
# condition_context: 10 µM unless noted
The panel holds about 83,000 compounds, 20% with a hit somewhere; the sample as a whole holds those more often.
// n strictly below 70% in growth; y otherwise

compound: COc1cccc2c1C=CC1(O2)Oc2cccc(OC)c2C=C1C (centres undefined)
answer_label: n
--
compound: Cn1cc(-c2nc(N)nnc2-c2c[nH]c3ccc(Br)cc23)c2cc(F)ccc21
answer_label: n
--
compound: Cc1ccc(-c2cc3nc(C(Cl)Cl)nc(-c4ccc(S(=O)(=O)N(C)C)cc4)n3n2)cc1
answer_label: y
--
compound: CCc1cc(OC(=O)N2CCC(N3CCCCC3)CC2)ccc1Nc1cc(-c2ccc(-n3cccn3)cc2)[nH]n1
answer_label: n
--
compound: CCCCc1nc2c(N)nc3ccccc3c2n1Cc1ccc(OC)cc1
answer_label: y
--
compound: CC(C)=CCC[C@](C)(O)[C@H]1CC[C@]2(C)[C@@H]1CC[C@@H]1[C@@]3(C)CC[C@H](N)C(C)(C)[C@@H]3CC[C@]12C
answer_label: y
--
compound: COC(=O)c1cccc(NC2=C(Cl)C(=O)c3nc(C)ccc3C2=O)c1
answer_label: n
--
compound: C#CCOc1cccc(-c2nc(N)nc(Nc3ccccc3SSc3ccccc3Nc3nc(N)nc(-c4cccc(OCC#C)c4)n3)n2)c1
answer_label: y
--
compound: Cc1ccc2c(n1)C(=O)C(Cl)=C(Nc1cc(C(F)(F)F)cc(C(F)(F)F)c1)C2=O
answer_label: y
--
compound: Cc1ccc(C(=O)CSc2nc3ccccc3c(=O)n2C)cc1
answer_label: y
--
compound: Oc1ccc(-c2nc3ccc(/C(=N\N=C\c4ccc(Cl)cc4)c4ccccc4)cc3[nH]2)cc1
answer_label: y
--
compound: CCOC(=O)Nc1ccc2c(ccn2C(=O)c2cccc(F)c2)c1
answer_label: n
--
compound: C#Cc1cc(C(=O)Nc2ccc(CNCCN3CCOCC3)c(C(F)(F)F)c2)ccc1C
answer_label: y
--
compound: CCc1cc(O)ccc1Nc1cc(-c2ccc(-n3cccn3)cc2)[nH]n1
answer_label: n
--
compound: CN1CCN(Cc2ccc(NC(=O)c3cncc(C#Cc4cnc5ccc(OCCCS(C)(=O)=O)nn45)c3)cc2C(F)(F)F)CC1
answer_label: n
--
compound: CCCCc1nc2c(N)nc3ccccc3c2n1Cc1cccc(CN)c1
answer_label: n
--
compound: C#C[C@]1(O)CC[C@H]2[C@@H]3CC=C4c5sc(N6CCN(C)CC6)nc5CC[C@]4(C)[C@H]3CC[C@@]21C
answer_label: n
--
compound: CC1=C(C)C(=O)C(Nc2ccc(C)cc2)=C(Br)C1=O
answer_label: y
--
compound: COc1cc2cc(Oc3ccc(NC(=O)c4cc(C(F)(F)F)cc(C(F)(F)F)c4)cc3)c(C)nc2cc1OCCN1CCOCC1
answer_label: n

---

# Tested on: MOLT-4 leukemia
# assay_info: NCI-60 one-dose screen, 48 h
# condition_context: 10 µM unless noted
Compounds without any hit were thinned out: in the full panel of roughly 83,000, 20% have a hit. The source made the active and inactive calls. The calls were made as follows: active = growth percent below 10; inactive = the rest.
Outcome codes: active, inactive

compound: CC[C@]12C=CCN3CC[C@@]4(c5ccc(OC)cc5N(C)[C@H]4[C@@](O)(C(=O)OC)[C@@H]1OC(=O)CCN1CCc4ccccc4C1)[C@@H]32
answer_label: inactive
--
compound: Oc1ccc(-c2nc3ccc(/C(=N\N=C\c4ccc(Cl)cc4)c4ccccc4)cc3[nH]2)cc1
answer_label: inactive
--
compound: CC(=O)OCCCCN1C=C/C(=C\C(=O)n2ccc3ccccc32)c2ccccc21
answer_label: inactive
--
compound: CC(C)Sc1nc(-c2ccccc2)c(C#N)c(N2CCOCC2)n1
answer_label: inactive
--
compound: CN1CCN(Cc2ccc(NC(=O)c3cncc(C#Cc4cnc(N)nc4)c3)cc2C(F)(F)F)CC1
answer_label: inactive
--
compound: CCCC/C(=C\c1ccc(O)c(O)c1)C(=O)NC(Cc1ccccc1)C(=O)C(=O)NCCc1ccc(OC)cc1 (stereo not given)
answer_label: inactive
--
compound: CC(=O)N1N=C(c2cc3ccccc3oc2=O)CC1c1cn(-c2ccccc2)nc1-c1ccc(C)cc1 (stereo not given)
answer_label: inactive
--
compound: CC1=C(C)C(=O)C(Nc2ccc(C)cc2)=C(Br)C1=O
answer_label: active
--
compound: C#Cc1cc(C(=O)Nc2ccc(CNCCN3CCOCC3)c(C(F)(F)F)c2)ccc1C
answer_label: inactive
--
compound: O=S(=O)(Oc1ccc(-c2cn3ccoc3n2)cc1)C1CCCCC1
answer_label: inactive
